System: Yap1 mRNA
Test: Antisense inhibition of human Yap1 in A-431 cells by cEt gapmers, single dose (Example 3, RTS36584)
Assay type: cell-based
Details: Table 35; Yap1 mRNA as percent of untreated control; 3-10-3 cEt gapmers targeting SEQ ID NO: 1 and 2; single dose
Strand notation (5' to 3'): a small letter for the sugar, then the base; units joined by * are phosphorothioate-linked, units joined directly phosphodiester-linked; [ ] holds rarer units or linkages, { } end groups; capitals alone tell only the bases. k = constrained ethyl (cEt); [5mC] = 5-methylcytosine; d = 2'-deoxy (DNA)
Give class 1 when the value for YAP1 (% UTC) is at least 50 % UTC. Give class 0 when it is less.

Please review the entries below; each comes with its answer.
>>> df
                                  substance  category
0  1074293 (antisense kG*k[5mC]*kT*dG*dT*dT*dT*d[5mC]*dA*d[5mC]*dT*dG*dG*kA*kG*k[5mC]) [compound 1074293]   class 1
1  1075509 (k[5mC]*kA*kT*dA*dA*dT*d[5mC]*d[5mC]*d[5mC]*dT*dG*dA*d[5mC]*kT*kT*kG; antisense) [compound 1075509]   class 1
2  1075605 (antisense k[5mC]*kG*kT*dA*dA*dA*d[5mC]*dA*dT*dT*dT*dT*dG*k[5mC]*k[5mC]*kT) [compound 1075605]   class 0
3  1075573 (antisense kA*kA*kG*dG*dA*dA*d[5mC]*d[5mC]*dT*dT*d[5mC]*dT*dG*kT*kG*kT) [compound 1075573]   class 1
4  1076437 (kG*kA*kA*dG*dA*dA*dT*dA*dG*d[5mC]*dA*dT*d[5mC]*kT*kG*kA; antisense) [compound 1076437]   class 0

Then this substance:
Q. Assess whether reported YAP1 (% UTC) for 1076181 (kT*kA*kT*dA*dA*dT*dT*dA*dG*d[5mC]*d[5mC]*dA*dA*k[5mC]*k[5mC]*kA; antisense) [compound 1076181] sits at 50 % UTC or higher.
A. class 0

---

Tested on: Yap1 mRNA
Experiment: Antisense inhibition of human Yap1 in SNU-449 cells by modified oligonucleotides, single dose (Example 5, RTS36584)
Assay type: cell-based
Conditions: Yap1 mRNA, percent of untreated control; modified oligonucleotides targeting SEQ ID NO: 1 and 2; Table 47
Strand notation (5' to 3'): a small letter for the sugar, then the base; units joined by * are phosphorothioate-linked, units joined directly phosphodiester-linked; [ ] holds rarer units or linkages, { } end groups; capitals alone tell only the bases. e = 2'-O-(2-methoxyethyl) (MOE); k = constrained ethyl (cEt); [5mC] = 5-methylcytosine; d = 2'-deoxy (DNA)
Kindly state YAP1 (% UT) for each of the entries shown.
One number for each entry, in % UT.

Solved entries (count: 5):
>>> df
                                  substance  studysystem  measurementtype  unitssymbol  testresult
0  1076453 (kG*kT*kA*dA*dT*dA*dT*dT*dG*d[5mC]*dA*dA*dT*k[5mC]*kT*kG) [Compound 1076453]    Yap1 mRNA      YAP1 (% UT)         % UT           7
1  958500 (kT*k[5mC]*kT*dA*dT*dA*dT*dT*dA*dG*dA*dG*dT*kA*kT*kG) [Compound 958500]    Yap1 mRNA      YAP1 (% UT)         % UT          53
2  1197190 (antisense k[5mC]*kT*kT*dT*dG*dG*dA*dA*dG*dA*dT*d[5mC]*dT*kG*kA*kA) [Compound 1197190]    Yap1 mRNA      YAP1 (% UT)         % UT          57
3  1074755 (CACTTTTACATTAGGA; antisense; chemistry not fully specified) [Compound 1074755]    Yap1 mRNA      YAP1 (% UT)         % UT          23
4  1074799 (kT*kG*k[5mC]*dT*dT*dT*dG*dG*dA*dA*dG*dA*dT*k[5mC]*kT*kG) [Compound 1074799]    Yap1 mRNA      YAP1 (% UT)         % UT          21

Need YAP1 (% UT) for each of these substances.
1. 1198861 (CAACTCTTATATGGTT; chemistry not fully specified) [Compound 1198861]
2. 1198872 (kT*kG*dT*dA*dT*dG*dT*d[5mC]*dA*dG*dA*kA*eG*kA*eG*kT; antisense) [Compound 1198872]

A.
100
8
